Recorded Total XRN, one value per entry.
Test system: 15 different HLA-DR molecules
assay: HLA-DR binding assays, panel of 15 different HLA-DR molecules (breadth of binding)
conditionSet: number of the 15 HLA-DR molecules bound (binders: 1000 nM or better)

{"molecule": "CSCC[C@H](NC(=O)[C@H](CCCCN)NC(=O)[C@H](CS)NC(=O)[C@H](CCC(N)=O)NC(=O)[C@H](CCCCN)NC(=O)[C@H](CC(C)C)NC(=O)[C@H](CC(N)=O)NC(=O)[C@H](Cc1ccc(O)cc1)NC(=O)[C@H](CC(C)C)NC(=O)CN)C(=O)N[C@@H](CO)C(=O)N[C@@H](CC(C)C)C(=O)N[C@@H](CC(N)=O)C(=O)NCC(=O)N[C@@H](CCC(N)=O)C(=O)O [Peptide 9019.0191]", "Total XRN": 6}
{"molecule": "CC(C)C[C@H](NC(=O)[C@H](CO)NC(=O)[C@H](C)NC(=O)[C@H](CC(N)=O)NC(=O)[C@@H](NC(=O)[C@@H]1CCCN1C(=O)[C@H](CC(C)C)NC(=O)[C@H](Cc1ccc(O)cc1)NC(=O)[C@@H](NC(=O)[C@@H](N)CC(C)C)[C@@H](C)O)[C@@H](C)O)C(=O)N[C@@H](CO)C(=O)N[C@@H](Cc1ccccc1)C(=O)N[C@@H](CC(C)C)C(=O)N[C@@H](CCC(N)=O)C(=O)N[C@@H](CC(=O)O)C(=O)O [Peptide 9019.0031]", "Total XRN": 12}

From here, focus on the item given below.
According to the records, this molecule CC(C)C[C@H](NC(=O)[C@H](CO)NC(=O)[C@H](CC(C)C)NC(=O)[C@H](CC(N)=O)NC(=O)[C@@H](NC(=O)CNC(=O)[C@@H]1CCCN1C(=O)[C@H](CCCNC(=N)N)NC(=O)[C@H](Cc1ccc(O)cc1)NC(=O)[C@H](Cc1ccc(O)cc1)NC(=O)[C@@H](NC(=O)[C@H](Cc1ccc(O)cc1)NC(=O)[C@@H](N)CO)[C@@H](C)O)C(C)C)C(=O)N[C@@H](CO)C(=O)N[C@@H](CS)C(=O)O [Peptide 9019.0128] displays Total XRN of 10

Reference source: patent US20140377340A1
